Study system: recombinant human pancreatic GLK (Homo sapiens)
Sequence (P35557 whole entry): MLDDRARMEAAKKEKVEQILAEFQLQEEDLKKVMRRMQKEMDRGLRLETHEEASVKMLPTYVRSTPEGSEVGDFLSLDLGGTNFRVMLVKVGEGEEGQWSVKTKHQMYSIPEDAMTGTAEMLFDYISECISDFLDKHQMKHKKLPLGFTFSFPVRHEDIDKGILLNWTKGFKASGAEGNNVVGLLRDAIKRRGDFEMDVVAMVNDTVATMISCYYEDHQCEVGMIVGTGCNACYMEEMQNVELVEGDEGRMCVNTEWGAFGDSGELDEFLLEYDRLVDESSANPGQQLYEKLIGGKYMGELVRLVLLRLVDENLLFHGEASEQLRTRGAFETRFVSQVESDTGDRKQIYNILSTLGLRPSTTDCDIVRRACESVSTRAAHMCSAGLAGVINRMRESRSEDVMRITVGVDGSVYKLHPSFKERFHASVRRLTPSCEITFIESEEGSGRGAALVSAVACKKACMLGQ
Protocol description: biochemical
Reported metric: EC50 (nM)
One number for each entry, in nM.

Let me know recorded EC50 for C[C@@H](CO)Oc1cc(Oc2nc3ccccc3s2)cc(C(=O)Nc2ccn(C)n2)c1 , thanks.
88
